Consider the following molecules; for each one, report its CC50.
test system: ACHN; test: Growth inhibition of human ACHN cells incubated for 48 hrs by sulforhodamine B assay; assay type: functional; conditions: read-out: LC50 (the source's name)
Form entry: value (µM) — number only.

**Query** Tell me its CC50 given COc1cccc2c1C(=O)c1c(O)c3c(c(O)c1C2=O)C[C@@](O)(C(=O)CO)C[C@@H]3O[C@H]1C[C@H](N)[C@H](O)[C@H](C)O1 as the entry.
**Result** 100

**Query** Tell me its CC50 given COc1cc(C(=O)/C=C/c2cccc(Nc3ccnc4cc(Cl)ccc34)c2)cc(OC)c1OC as the entry.
**Result** 4.99
